assayed_target: Dihydroorotate dehydrogenase (quinone), mitochondrial (Plasmodium falciparum (isolate 3D7))
assay_details: PfDHODH enzyme inhibitors, primary screen, biochemical, C-terminal His tag, absorbance 600 nm (AID 1175);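 further: recombinant parasite enzyme with a five histidine tag at its C terminus; test concentration not given here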
condition_details: DCIP absorbance 600 nm, called active from +8 up or from −8 down
Calls of active or inactive are those of the source.
Pick one and only one: true (1) (active), false (0) (inactive)

Solved entries:
INSERT INTO assay_data (compound, class_name) VALUES
  ('COc1ccc(CCN2C(=O)[C@@]3(c4ccc([N+](=O)[O-])cc4)CC(=O)N(CC45CC6CC(CC(C6)C4)C5)[C@@H]3c3ccc(CO)cc32)cc1', 'true (1)'),
  ('O=C(NCc1ccccc1)c1ccc(Br)cc1[N+](=O)[O-]', 'false (0)'),
  ('COCCCNC(=O)[C@@]1(c2ccc([N+](=O)[O-])cc2)CC(=O)N(C2CCCCC2)[C@@H]1c1ccc(CO)cc1', 'false (0)'),
  ('Cc1ccc(N2C(=O)c3ccccc3[C@](C)(C(=O)O)[C@@H]2c2ccc(CO)cc2)nc1', 'false (0)'),
  ('CC(C)N1CC=CC23O[C@@H]4/C=C\CCCOC(=O)C4[C@H]2C(=O)N(CCCCCO)[C@@H]3C1=O (stereo not given in full)', 'false (0)');

Request: For COc1ccc([Si](C)(C)[C@@H]2[C@@H](CCO)O[C@]3(C(=O)N(Cc4ccccc4)c4ccccc43)[C@H]2C)cc1 , which call appears in the assay record?
Response: false (0)

Request: For CO[C@]12C=C(Br)[C@@H](C[C@@H]1c1ccccc1)[C@@]1(CO1)C2=O , which call appears in the assay record?
Response: false (0)

Request: For C=C(CCCC)C(=O)CC[C@@H](OC(=O)c1cccnc1)c1cccc(OCCO)c1 , which call appears in the assay record?
Response: false (0)
